Experiment: physchem
Settings: aqueous malic acid
QUANTITY: solubility

(Q) Look at this compound and give its reported solubility. O=C(CCCN1CCC(O)(c2ccc(Cl)cc2)CC1)c1ccc(F)cc1 [haloperidol]
(A) > 250 mg/mL

###

Experiment: physchem
Conditions: aqueous maleic acid
QUANTITY: solubility

(Q) Please look up its solubility: O=C(CCCN1CCC(O)(c2ccc(Cl)cc2)CC1)c1ccc(F)cc1 [haloperidol]
(A) > 200 mg/mL

###

Assay: physchem
Conditions: aqueous citric acid
QUANTITY: solubility (mg/mL)
Kindly provide the numeric value in mg/mL only, without the unit symbol.

(Q) I'd like to know its solubility. The molecule in question is O=C(CCCN1CCC(O)(c2ccc(Cl)cc2)CC1)c1ccc(F)cc1 [haloperidol]
(A) 165

###

Test: physchem
Conditions: water
QUANTITY: solubility

(Q) Would you kindly share the measured solubility for O=C(CCCN1CCC(O)(c2ccc(Cl)cc2)CC1)c1ccc(F)cc1 [haloperidol] ?
(A) < 100 µg/mL
